Biological target: T1, wt MPER peptide (HIV-1, strain  (synthetic …))
T1 construct: source: synthetic peptide (Genscript)
Assay: BLI; Octet Red; Mabs captured on anti-human IgG Fc biosensors (10 µg/mL), peptides or ES2 as analyte in solution, two-fold dilutions 500 nM to 7.81 nM, PBS pH 7.4, 0.2% Tween 20, 60 s association and 60 s dissociation, no lipid; Langmuir 1:1 fit; also used for the alanine-substituted MPER peptides
Details: both partners purified
Each item that follows carries a reported kon.
assayEndpoint: kon (M⁻¹ s⁻¹)

INSERT INTO assay_data (binder, assayendpoint, measvalue) VALUES
  ('2F5 CDRH3 length-altered variant r2 (antibody, V domains shown) VH: RITLKESGPPLVKPTQTLTLTCSFSGFSLSDFGVGVGWIRQPPGKALEWLAIIYSDDDKRYSPSLNTRLTITKDTSKNQVVLVMTRVSPVDTATYFCAHRRGPTLFGVIARGPVNAMDVWGQGITVTISS VL: ALQLTQSPSSLSASVGDRITITCRASQGVTSALAWYRQKPGSPPQLLIYDASSLESGVPSRFSGSGSGTEFTLTISTLRPEDFATYYCQQLHFYPHTFGGGTRVDVR', 'kon', 50000),
  ('2F5 CDRH3 length-altered variant r4 (antibody, V domains shown) VH: RITLKESGPPLVKPTQTLTLTCSFSGFSLSDFGVGVGWIRQPPGKALEWLAIIYSDDDKRYSPSLNTRLTITKDTSKNQVVLVMTRVSPVDTATYFCAHRRGPLFGVARGPVNAMDVWGQGITVTISS VL: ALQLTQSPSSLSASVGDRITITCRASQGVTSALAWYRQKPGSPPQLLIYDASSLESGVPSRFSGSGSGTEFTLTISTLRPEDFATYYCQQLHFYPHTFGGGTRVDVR', 'kon', 20000),
  ('2F5 CDRH3 length-altered variant e2 (antibody, V domains shown) VH: RITLKESGPPLVKPTQTLTLTCSFSGFSLSDFGVGVGWIRQPPGKALEWLAIIYSDDDKRYSPSLNTRLTITKDTSKNQVVLVMTRVSPVDTATYFCAHRRGPTTGLFGVGPIARGPVNAMDVWGQGITVTISS VL: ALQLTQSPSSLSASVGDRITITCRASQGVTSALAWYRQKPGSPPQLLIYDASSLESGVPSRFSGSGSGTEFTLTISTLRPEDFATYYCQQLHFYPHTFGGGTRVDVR', 'kon', 10000),
  ('2F5 CDRH3 length-altered variant e4 (antibody, V domains shown) VH: RITLKESGPPLVKPTQTLTLTCSFSGFSLSDFGVGVGWIRQPPGKALEWLAIIYSDDDKRYSPSLNTRLTITKDTSKNQVVLVMTRVSPVDTATYFCAHRRGPTTGGLFGVGGPIARGPVNAMDVWGQGITVTISS VL: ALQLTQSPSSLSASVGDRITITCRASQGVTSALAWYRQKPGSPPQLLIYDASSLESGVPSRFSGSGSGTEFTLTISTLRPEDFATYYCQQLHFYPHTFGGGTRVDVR', 'kon', 40000),
  ('2F5 CDRH3 length-altered variant r6 (antibody, V domains shown) VH: RITLKESGPPLVKPTQTLTLTCSFSGFSLSDFGVGVGWIRQPPGKALEWLAIIYSDDDKRYSPSLNTRLTITKDTSKNQVVLVMTRVSPVDTATYFCAHRRGLFGVRGPVNAMDVWGQGITVTISS VL: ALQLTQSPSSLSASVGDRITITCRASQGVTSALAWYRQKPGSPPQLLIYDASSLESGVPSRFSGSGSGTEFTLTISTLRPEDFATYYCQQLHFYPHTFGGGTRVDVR', 'kon', 40000);
